Hey, just so you know, these numbers are from the RepoRT retention time repository.

test: Waters SunFire C18, 150 × 2.1 mm, 3.5 µm, 25 °C, 0.25 mL/min, estimated dead time 1.3 min; A: water + 0.1% formic acid; B: methanol; gradient (min/%B) 0/5 30/100; settings: stereoisomer not certain
MEASURED PARAMETER: LC retention time (min)
Could you give me the number in min? Just the number is fine.

Observe how each entry below is paired with its result.
> print(dat)
                                   compound  numeric.result
1  c1ccc2c(c1)NC13CCC4(CCCN5CCC21C54)CC3 (centres undefined)            19.5
2  COC(=O)C1=C2Nc3ccccc3C23CCN2CC4(CC5CC67CCOC6CCN6CCC8(c9cccc(OC)c9N(C4)C58O)C67)C4OCCC4(C1)C23 (centres undefined)            23.3
3  CC=C1CN2C3CC1C1(C(=O)OC)C2CC2(c4ccccc4NC32)C1O (centres undefined)            14.9

Field request: LC retention time | item: C=CC1CN2CCc3c([nH]c4ccccc34)C2CC1CC1c2[nH]c3ccccc3c2CCN1C (centres undefined)
14.8
